system: Escherichia coli TOP10; assay: shrunken log2 fold change of peptide-encoding DNA abundance (4.5 h post-induction vs induction); higher = less antimicrobial activity (less host growth inhibition); details: time post-induction: 4.5 h; library: site-saturation at positions 5, 18, 19, 20;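 also: peptides expressed intracellularly from a pBAD plasmid library in pooled LB shake-flask culture, induced with 0.3% L-arabinose, DNA abundance read by NGS, three biological replicates, DESeq2 with apeglm shrinkage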
value-type: shrunken log2 fold change

Solved cases below.
* RRIRQRPPRLPRPRPRPCNCPRP | -0.0201
* RRIRSRPPRLPRPRPRPAFPPRP | 0.278
* RRIRQRPPRLPRPRPRPYVEPRP | -0.537
* RRIRPRPPRLPRPRPRPNVCPRP | -0.169

Field request: shrunken log2 fold change | item: RRIRRRPPRLPRPRPRPSDCPRP
-0.0825
